Tested on: human red blood cells (hRBC)
experimentalProtocol: Hemolysis of human red blood cells
Assay type: cell-based
statedConditions: red cells of human, 1 h, 100
Where a SMILES comes first, the peptide text is derived from it. [ ]: non-standard residue; d: D form. Phe(4-NH2) = Nc1ccc(C[C@H](N)C(=O)O)cc1; Tle = CC(C)(C)[C@H](N)C(=O)O; dDab = NCC[C@@H](N)C(=O)O; Orn = NCCC[C@H](N)C(=O)O; Dab = NCC[C@H](N)C(=O)O
assayReadout: Hemolysis at 100 μg/ml (%)
Reply with just the number (in %).

[ask] GET /values?readout=Hemolysis at 100 μg/ml&system=human red blood cells (hRBC)&item= CC[C@H](C)[C@@H]1NC(=O)[C@@H]2CCCN2C(=O)[C@H]2CCCN2C(=O)[C@H](CO)NC(=O)[C@H](C)NC(=O)[C@H](C(C)(C)C)NC(=O)[C@H](CCN)NC(=O)[C@H](Cc2c[nH]c3ccccc23)NC(=O)[C@H](CCN)NC(=O)[C@@H](CCN)NC(=O)[C@H](CCCN)NC(=O)[C@H](CCN)NC(=O)[C@H](Cc2ccc(N)cc2)NC(=O)[C@H](CO)NC1=O [compound 83] (cyclo(IS[Phe(4-NH2)][Dab][Orn][dDab][Dab]W[Dab][Tle]AS[dP]P))
[reply] 0.5
